# Tested on: Lung adenocarcinoma organoid
# method_summary: Anti-tumor activity against Osimertinib-resistant patient (#0416)-derived human Lung adenocarcinoma organoid assessed as inhibition of cell viability measured after 96 hrs
# Assay type: functional, tissue-based
# measurement_parameters: Neoplasm
pIC50: −log10 of the molar value.
reported_property: pIC50

INSERT INTO results (sample_smiles, recorded_measurement) VALUES
  ('CC(=O)N1CCC(NC(=O)c2ccc3cc2OCCCCCCOc2cc(ccc2F)-c2nc(ncc2F)N3)CC1', '> 8.00');

###

# method_summary: Metabolic stability in human liver S9 fraction assessed as half life measured for 5 to 60 mins by LC-MS/MS analysis
# Assay type: ADME, subcellular
# measurement_parameters: time 5-60 min
reported_property: half-life (h)

INSERT INTO assay_data (sample_smiles, reported_property, recorded_measurement) VALUES
  ('CC(=O)N1CCC(NC(=O)c2ccc3cc2OCCCCCCOc2cc(ccc2F)-c2nc(ncc2F)N3)CC1', 'half-life', 1.62);

###

# method_summary: Clearance in BALB/c mouse at 2 mg/kg, iv
# Assay type: ADME, organism-based
# measurement_parameters: in vivo
reported_property: clearance (mL/min/kg)

INSERT INTO results (sample_smiles, recorded_measurement) VALUES
  ('CC(=O)N1CCC(NC(=O)c2ccc3cc2OCCCCCCOc2cc(ccc2F)-c2nc(ncc2F)N3)CC1', 83.3);

###

# method_summary: Metabolic stability in mouse liver microsomes assessed as half life measured for 5 to 60 mins by LC-MS/MS analysis
# Assay type: ADME, Microsome
# measurement_parameters: time 5-60 min
reported_property: half-life (h)

INSERT INTO assay_data (sample_smiles, recorded_measurement) VALUES
  ('CC(=O)N1CCC(NC(=O)c2ccc3cc2OCCCCCCOc2cc(ccc2F)-c2nc(ncc2F)N3)CC1', 1.07);

###

# method_summary: AUC (0 to infinity) in Sprague-Dawley rat at 2 mg/kg, iv
# Type: ADME, organism-based
# measurement_parameters: in vivo
reported_property: AUC(0-inf) (ng·h/mL)

INSERT INTO measurements (sample_smiles, recorded_measurement) VALUES
  ('CC(=O)N1CCC(NC(=O)c2ccc3cc2OCCCCCCOc2cc(ccc2F)-c2nc(ncc2F)N3)CC1', 2550);

###

# method_summary: Anti-proliferative activity against human Osimertinib-resistant HCC827 cells assessed as cell inhibition measured after 72 hrs in presence of 500 nM JQ1 by MTT assay
# Format: functional, cell-based
reported_property: IC50 (nM)

INSERT INTO assay_data (sample_smiles, recorded_measurement) VALUES
  ('CC(=O)N1CCC(NC(=O)c2ccc3cc2OCCCCCCOc2cc(ccc2F)-c2nc(ncc2F)N3)CC1', 5.2);

###

# Tested on: Lung adenocarcinoma organoid
# method_summary: Anti-tumor activity against Osimertinib-resistant patient (#0085)-derived human Lung adenocarcinoma organoid assessed as inhibition of cell viability measured after 96 hrs
# Assay type: functional, tissue-based
# measurement_parameters: Neoplasm
reported_property: IC50 (nM)

INSERT INTO results (sample_smiles, recorded_measurement) VALUES
  ('CC(=O)N1CCC(NC(=O)c2ccc3cc2OCCCCCCOc2cc(ccc2F)-c2nc(ncc2F)N3)CC1', 44.7);

###

# method_summary: Metabolic stability in human liver S9 fraction assessed as clearance measured for 5 to 60 mins by LC-MS/MS analysis
# Format: ADME, subcellular
# measurement_parameters: time 5-60 min, read-out: CLH
reported_property: microsomal CLint (µL/min/mg)

INSERT INTO results (sample_smiles, unit_of_measurement, recorded_measurement) VALUES
  ('CC(=O)N1CCC(NC(=O)c2ccc3cc2OCCCCCCOc2cc(ccc2F)-c2nc(ncc2F)N3)CC1', 'µL/min/mg', 14.2);
